// provenance: patent EP0371733A2

Study System: DBH (Homo sapiens, UniProt P09172)
Sequence (P09172 1-617): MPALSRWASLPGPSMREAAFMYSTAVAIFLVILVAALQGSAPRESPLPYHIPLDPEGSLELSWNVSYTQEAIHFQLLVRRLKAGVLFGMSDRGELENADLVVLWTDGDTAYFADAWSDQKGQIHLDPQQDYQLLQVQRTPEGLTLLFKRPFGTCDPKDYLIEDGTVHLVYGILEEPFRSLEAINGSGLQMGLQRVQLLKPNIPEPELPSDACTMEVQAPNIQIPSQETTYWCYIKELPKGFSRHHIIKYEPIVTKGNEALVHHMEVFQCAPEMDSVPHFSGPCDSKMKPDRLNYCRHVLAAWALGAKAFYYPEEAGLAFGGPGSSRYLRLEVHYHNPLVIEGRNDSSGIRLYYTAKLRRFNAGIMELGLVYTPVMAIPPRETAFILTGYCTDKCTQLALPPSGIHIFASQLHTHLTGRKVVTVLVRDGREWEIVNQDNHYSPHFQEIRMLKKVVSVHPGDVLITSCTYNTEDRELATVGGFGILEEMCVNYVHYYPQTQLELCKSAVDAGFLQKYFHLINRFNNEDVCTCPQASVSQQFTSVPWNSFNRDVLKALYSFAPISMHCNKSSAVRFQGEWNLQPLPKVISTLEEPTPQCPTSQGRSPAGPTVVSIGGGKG
Assay Notes: in vitro DBH inhibition, conversion of tyramine to octopamine in the presence of DBH
Measurement Setup: concentration at which DBH activity was halved; octopamine assayed by absorbence at 330 nm; read-out: DBH IC₅₀
Measurement Kind: IC50 (µM)
All answers are understood in µM, so give the number only.

Please report the recorded IC50 for Fc1cc(F)cc(CN2CCSC2=S)c1 .
13

Please report the recorded IC50 for Fc1cccc(CN2CCSC2=S)c1 .
30

Please report the recorded IC50 for S=C1SCCN1Cc1ccccc1 [3-Phenylmethyl-2-thiazolidinethione] .
72
